- TARGET_OR_TEST_SYSTEM: Adrenergic β2 (Homo sapiens)
- Construct: Adherent H292 cells are removed from tissue culture flasks by treatment with Accutase™ cell detachment solution; endogenous in cells; host or cells: H292 cells
- Sequence (P07550 whole entry): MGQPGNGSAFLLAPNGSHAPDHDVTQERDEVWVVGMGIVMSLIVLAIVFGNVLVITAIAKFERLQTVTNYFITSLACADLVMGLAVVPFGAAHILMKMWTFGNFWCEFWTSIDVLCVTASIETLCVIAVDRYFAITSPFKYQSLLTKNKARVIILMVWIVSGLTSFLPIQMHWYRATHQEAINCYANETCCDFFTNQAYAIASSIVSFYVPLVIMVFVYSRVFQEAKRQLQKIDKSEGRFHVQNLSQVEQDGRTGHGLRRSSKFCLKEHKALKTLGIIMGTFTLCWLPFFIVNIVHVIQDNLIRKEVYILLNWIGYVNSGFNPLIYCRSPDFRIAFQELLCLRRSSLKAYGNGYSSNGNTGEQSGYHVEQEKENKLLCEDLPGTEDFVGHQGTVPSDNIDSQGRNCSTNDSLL
- PROTOCOL_TEXT: Adrenergic β2 mediated cAMP production in H292 cells (AlphaScreen), concentration response
- Assay type: cell-based
- TEST_SETTINGS: fraction relative to the maximum activity determined for formoterol
EXPERIMENTAL_ENDPOINT: β2 Intrinsic Activity
# answer = number (no unit)

Below, 4 compounds whose answers are already recorded.
CC(C)c1nc(C(=O)N2CCOC3(CCN(Cc4cccc(SCCCOCCC(=O)N(CCNCCc5ccc(O)c6c5OCC(=O)N6)C5CCCC5)c4)CC3)C2)cs1 [Example 54, ditrifluoroacetate]	0.9
CC(C)c1nc(C(=O)N2CCOC3(CCN(Cc4cccc(OCCOCCC(=O)N(CCNCCc5ccc(O)c6c5OCC(=O)N6)C5CCCCC5)c4)CC3)C2)cs1 [Example 59, ditrifluoroacetate]	0.9
CC(C)c1nc(C(=O)N2CCOC3(CCN(Cc4cccc(CCOCCC(=O)N(CCNCCc5ccc(O)c6c5OCC(=O)N6)[C@H](C)C(C)(C)C)c4F)CC3)C2)cs1 [Example 19, ditrifluoroacetate]	0.9
O=C1COc2c(CCNCCN(C(=O)CCOCCc3cccc(CN4CCC5(CC4)CN(C(=O)Cc4ccc6c(c4)OCO6)CCO5)c3)C3CCCCC3)ccc(O)c2N1 [Example 140]	1.0

Give its β2 Intrinsic Activity value. Item: CC(C)c1nc(C(=O)N2CCOC3(CCN(CCc4cc(CCOCCC(=O)N(CCNCCc5ccc(O)c6c5OCC(=O)N6)C5CCCCC5)cs4)CC3)C2)cs1 [Example 63, ditrifluoroacetate] 1.1

----------
Property: inhibition at 1 µM; scope: individual compounds
- TARGET_OR_TEST_SYSTEM: human muscarinic acetylcholine M3 receptor (Homo sapiens)
- Construct: expressed in transfected cells; host or cells: CHO-K1 (Chinese Hamster Ovary) cell membranes
- Sequence (P20309 whole entry): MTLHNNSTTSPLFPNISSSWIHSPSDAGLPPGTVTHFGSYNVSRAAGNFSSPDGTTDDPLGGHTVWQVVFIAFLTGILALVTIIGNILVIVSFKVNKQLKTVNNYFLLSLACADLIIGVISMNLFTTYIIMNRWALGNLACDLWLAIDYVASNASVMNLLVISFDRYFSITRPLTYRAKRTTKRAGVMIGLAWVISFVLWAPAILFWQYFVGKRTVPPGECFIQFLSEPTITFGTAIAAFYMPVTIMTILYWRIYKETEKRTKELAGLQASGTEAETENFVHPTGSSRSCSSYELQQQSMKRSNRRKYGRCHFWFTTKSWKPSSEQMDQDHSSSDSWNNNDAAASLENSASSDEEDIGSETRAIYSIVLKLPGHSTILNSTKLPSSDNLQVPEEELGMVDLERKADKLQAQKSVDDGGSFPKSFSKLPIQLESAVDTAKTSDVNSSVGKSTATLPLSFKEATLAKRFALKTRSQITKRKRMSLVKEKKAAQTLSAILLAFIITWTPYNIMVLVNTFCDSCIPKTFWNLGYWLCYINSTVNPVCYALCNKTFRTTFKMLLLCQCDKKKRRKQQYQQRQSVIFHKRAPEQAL
- PROTOCOL_TEXT: Muscarinic 3 receptor binding assay ([3H]NMS competition, SPA), single concentration 1 μM
- TEST_SETTINGS: 1 μM compound; % inhibition specific [3H]-NMS binding
Quick reminder: number only, in %, skip the unit.

Below, 3 compounds whose answers are already recorded.
O=C1COc2c(CCNCCN(C(=O)CCOCCc3cccc(CN4CCC5(CC4)CN(C(=O)c4cnc(-c6ccccc6)[nH]4)CCO5)c3)C3CCCCC3)ccc(O)c2N1	90
O=C1COc2c(CCNCCN(C(=O)CCOCCc3cccc(CN4CCC5(CC4)CN(C(=O)c4ccc6c(c4)OCO6)CCO5)c3)C3CCCCC3)ccc(O)c2N1	101
CC(C)C[C@H](O)C(=O)N1CCOC2(CCN(Cc3cccc(CCOCCC(=O)N(CCNCCc4ccc(O)c5c4OCC(=O)N5)C4CCCCC4)c3)CC2)C1	100

Give its inhibition at 1 µM value. Item: Cc1ncc(Br)cc1C(=O)N1CCOC2(CCN(Cc3cccc(CCOCCC(=O)N(CCNCCc4ccc(O)c5c4OCC(=O)N5)C4CCCCC4)c3)CC2)C1 96

Give its inhibition at 1 µM value. Item: COC1CCCC(C(=O)N2CCOC3(CCN(Cc4cccc(CCOCCC(=O)N(CCNCCc5ccc(O)c6c5OCC(=O)N6)C5CCCCC5)c4)CC3)C2)C1 (stereo not shown) 100

Give its inhibition at 1 µM value. Item: O=C1COc2c(CCNCCN(C(=O)CCOCCc3cccc(CN4CCC5(CC4)CN(C(=O)c4c(F)cccc4F)CCO5)c3)C3CCCCC3)ccc(O)c2N1 98

Give its inhibition at 1 µM value. Item: O=C1COc2c(CCNCCN(C(=O)CCOCCc3cccc(CN4CCC5(CC4)CN(C(=O)Cc4ccc6c(c4)OCO6)CCO5)c3)C3CCCCC3)ccc(O)c2N1 100
